molecular target: P2Y purinoceptor 12 (Homo sapiens); test: Binding affinity to human recombinant P2Y12 receptor expressed on CHO cell membrane; type: cell membranes
Sequence (Q9H244 whole entry): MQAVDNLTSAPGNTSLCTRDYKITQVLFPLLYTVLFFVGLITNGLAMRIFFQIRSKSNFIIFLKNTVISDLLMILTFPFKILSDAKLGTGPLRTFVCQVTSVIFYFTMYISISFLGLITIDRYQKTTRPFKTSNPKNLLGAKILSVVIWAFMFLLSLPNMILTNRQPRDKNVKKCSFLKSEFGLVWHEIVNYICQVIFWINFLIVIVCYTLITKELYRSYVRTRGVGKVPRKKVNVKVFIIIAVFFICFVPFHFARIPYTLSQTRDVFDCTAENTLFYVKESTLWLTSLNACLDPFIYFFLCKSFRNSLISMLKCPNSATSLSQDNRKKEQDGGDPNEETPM
pKi: −log10 of the molar value.
ENDPOINT NAME: pKi

Solved cases below.
{"columns": ["MOL", "ASSAY SYSTEM", "VALUE REPORTED"],
 "data": [
  ["CCc1cc2c(N3CCN(C(=O)c4ccc(-c5ccccc5)cc4)CC3)nc(N3CCNCC3)nc2s1", "P2Y purinoceptor 12 (Homo sapiens)", 6.39],
  ["CCc1cc2c(N3CCN(C(C)=O)CC3)nc(NC(=O)NCCC(=O)O)nc2s1", "P2Y purinoceptor 12 (Homo sapiens)", 6.34],
  ["CCc1cc2c(N3CCN(C(=O)c4ccc(-c5ccccc5)cn4)CC3)nc(NC(=O)NCCC(=O)O)nc2s1", "P2Y purinoceptor 12 (Homo sapiens)", 7.43]
]}

(1) CCc1cc2c(N3CCN(C(=O)c4ccc(-c5ccccc5)cc4)CC3)nc(N3C[C@@H](O)C[C@H]3C(=O)O)nc2s1
(2) CCc1cc2c(N3CCN(C(=O)Cc4ccccc4)CC3)nc(NC(=O)NCCC(=O)O)nc2s1
Data request: 1 or 2 : whose pKi is greater? Kindly state the label of the option you pick.
Data returned: 1

----------
biological target: P2Y purinoceptor 12 (Homo sapiens); test: Binding affinity to human recombinant P2Y12 receptor expressed in CHO cell membrane in presence of HSA and human AGP; assay type: cell membranes
pKi: −log10 of the molar value.
ENDPOINT NAME: pKi

{"columns": ["MOL", "pKi"],
 "data": [
  ["CCc1cc2c(N3CCN(C(=O)C(C)C)CC3)nc(NC(=O)NCCC(=O)O)nc2s1", 7.34],
  ["CCc1cc2c(N3CCN(C(=O)Cc4ccccc4)CC3)nc(NC(=O)NCCC(=O)O)nc2s1", 6.64],
  ["CCc1cc2c(N3CCN(C(=O)c4ccc(-c5ccccc5)cc4)CC3)nc(N3CCNCC3)nc2s1", 6.40]
]}

(a) CCC(=O)N1CCN(c2nc(NC(=O)NCCC(=O)O)nc3sc(CC)cc23)CC1
(b) CCc1cc2c(N3CCN(C(=O)c4ccc(-c5ccccc5)cc4)CC3)nc(N3CCN(C(=O)C(F)(F)F)CC3)nc2s1
Data request: a or b : whose pKi is greater? Kindly state the label of the option you pick.
Data returned: a
(a: 6.44, b: 5.74)
